Molecular target: hGIPR (Homo sapiens, UniProt P48546)
Sequence (P48546 22-466): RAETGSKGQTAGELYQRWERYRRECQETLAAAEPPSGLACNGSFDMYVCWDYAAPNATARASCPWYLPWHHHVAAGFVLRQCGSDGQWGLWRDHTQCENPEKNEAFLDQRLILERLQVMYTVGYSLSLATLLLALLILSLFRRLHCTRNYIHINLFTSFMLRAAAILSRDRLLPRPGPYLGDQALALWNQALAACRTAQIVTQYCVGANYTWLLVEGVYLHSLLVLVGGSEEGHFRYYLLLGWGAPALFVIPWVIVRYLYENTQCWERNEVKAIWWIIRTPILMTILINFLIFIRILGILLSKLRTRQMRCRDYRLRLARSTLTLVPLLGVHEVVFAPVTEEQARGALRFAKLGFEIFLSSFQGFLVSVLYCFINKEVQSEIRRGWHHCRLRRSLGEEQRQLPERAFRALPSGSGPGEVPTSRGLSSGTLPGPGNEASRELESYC
Test: Functional cAMP activation in the presence of 0.1% casein (no HSA);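 note: intracellular cAMP rise after 30 min at 37 °C read by HTRF against a standard curve, scaled between buffer alone (0%) and top control ligand concentration (100%), four-parameter fit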
Format: cell-based
Conditions: read-out: Relative cAMP EC50, hGIPR
Starred links: 1 amine or outer side, 2 acyl side, 3 side chain; linkers in the order of their positions; H or OH if unused. Non-standard residues stand in square brackets, D forms with d. Groups on a side chain read outwards from the residue. No end group written: not given here. *: point of attachment. C18 diacid = O=C(O)CCCCCCCCCCCCCCCCC(=O)*; αMePhe(2-F) = C[C@](N)(Cc1ccccc1F)C(=O)O; γGlu = O=C(O)[C@H](CCC(=O)[*:2])N[*:1]; αMe4Pal = C[C@](N)(Cc1ccncc1)C(=O)O; αMeY = C[C@](N)(Cc1ccc(O)cc1)C(=O)O; 4Pal = N[C@@H](Cc1ccncc1)C(=O)O; αMeL = CC(C)C[C@](C)(N)C(=O)O; αMeS = C[C@](N)(CO)C(=O)O; Orn = NCCC[C@H](N)C(=O)O; AEEA = NCCOCCOCC(=O)O; Aib = CC(C)(N)C(=O)O
Below, each entry is listed with its recorded log10 EC50.
// do not treat as linear: log10 of EC50, unit pM

Y[Aib]QGT[αMePhe(2-F)]TSD[4Pal]SILLDKK([γGlu-γGlu-C18 diacid])AQ[Aib]AFIEWLQEGGPSSGAPPPSGTEE-NH2 [Example 578]
1.32
H-Y[Aib]QGT[αMePhe(2-F)]TSD[4Pal]SILLDKK([γGlu-γGlu-C18 diacid])AQ[Aib]AFIEYLEEGGPSSGAPPPSGSGE-NH2 [Example 618]
1.62
H-Y[Aib]QGT[αMePhe(2-F)]TSD[4Pal][αMeS]I[αMeL]LD[Orn]K([γGlu-γGlu-C18 diacid])AQ[Aib][Orn]FI[dE]YLIEGGPSSGEPPPSGTEE-NH2 [Example 535]
1.26
H-Y[Aib]QGT[αMePhe(2-F)]TSD[4Pal][αMeS]I[αMeL]LD[Orn]K([γGlu-γGlu-C18 diacid])AQ[Aib][Orn]FI[dE][αMeY]LSEGGPSSGEPPPSGAEE-NH2 [Example 567]
2.22
H-Y[Aib]QGT[αMePhe(2-F)]TSD[4Pal]SI[αMeL]LD[Orn]K([AEEA-γGlu-C18 diacid])AQ[αMe4Pal][Orn]FI[dE][αMeY]LIEGGPSSGDPPPEGE-NH2 [Example 727]
1.04
H-Y[Aib]QGT[αMePhe(2-F)]TSD[4Pal]SILLDKK([γGlu-γGlu-C18 diacid])AQ[Aib]AFIE[αMeY]LEEGGPSSGAPPPSGGGE-NH2 [Example 668]
1.30
H-Y[Aib]QGT[αMePhe(2-F)]TSD[4Pal]SI[αMeL]LD[Orn]K([γGlu-γGlu-C18 diacid])AQ[αMe4Pal]EFI[dE][αMeY]LAEGGPSSGAPPPSGS-NH2 [Example 646]
1.53
H-Y[Aib]QGT[αMePhe(2-F)]TSD[4Pal][αMeS]I[αMeL]LD[Orn]K([γGlu-γGlu-C18 diacid])AQ[Aib][Orn]FI[dE][αMeY]LSEGGPSSGEPPPSGTGE-NH2 [Example 518]
2.11
Y[Aib]QGT[αMePhe(2-F)]TSD[4Pal][αMeS]I[αMeL]LD[Orn]K([γGlu-γGlu-C18 diacid])AQ[αMe4Pal]EFI[dE][αMeY]LIEGGPSSGEPPPEGGGE-NH2 [Example 762]
0.95
H-Y[Aib]QGT[αMePhe(2-F)]TSD[4Pal][αMeS]I[αMeL]LD[Orn]K([γGlu-γGlu-C18 diacid])AQ[Aib][Orn]FI[dE][αMeY]LIEGGPSSGEPPPSEG-NH2 [Example 480]
1.03

Any idea what log10 EC50 was measured for H-Y[Aib]QGT[αMePhe(2-F)]TSD[4Pal][αMeS]I[αMeL]LD[Orn]K([γGlu-γGlu-C18 diacid])AQ[αMe4Pal]EFI[dE][αMeY]LVEGGPSSGEPPPSGS-NH2 [Example 737] ?
0.91

Requested read-out: log10 EC50. Entry: H-Y[Aib]QGT[αMePhe(2-F)]TSD[4Pal]SI[αMeL]LD[Orn]K([AEEA-γGlu-C18 diacid])AQ[αMe4Pal]EFI[dE][αMeY]LLEGGPSSGAPPPSGS-NH2 [Example 641]
0.91

So what's the measured log10 EC50 for this one? H-Y[Aib]QGTFTSDFS[Orn][αMeL]LDKK([AEEA-γGlu-C18 diacid])AQ[Aib]AFIE[4Pal]LLEGGPSSGAPPPGGS-NH2 [Example 496]
2.59
